Species on record: Mus musculus
Experiment: Oral potency tested by using anti-mescaline test
Assay type: functional
Consider the following molecules and their measured ED50 readings.

A selection of reference data follows.
CSc1ccc(C(O)CC2CCN(Cc3ccccc3)CC2)cc1 (centres undefined)	> 30 mg/kg
COc1ccc(OCC2CCN(CC3CC3)CC2)cc1.Cl.O	> 30 mg/kg
C[S+]([O-])c1ccc(C(=O)CC2CCN(Cc3ccccc3)CC2)cc1.O (centres undefined)	> 30 mg/kg
Cl.OC(Cc1ccccc1)C1CCN(Cc2ccccc2)CC1 (centres undefined)	< 10 mg/kg
c1cc2cc(OCC3CCN(CC4CC4)CC3)ccc2[nH]1	< 30 mg/kg

So, "COc1ccc(C(=O)CC2CCN(Cc3ccccc3)CC2)cc1" ? Its ED50 was > 30 mg/kg

So, "O.O=C(CC1CCN(Cc2ccccc2)CC1)c1ccc(O)cc1" ? Its ED50 was > 30 mg/kg

So, "Br.CC(C)(C)c1ccc(C(=O)CC2CCN(CC3CC3)CC2)cc1.O" ? Its ED50 was > 30 mg/kg

So, "O=C(O)/C=C\C(=O)O.c1ccc(CN2CCC(COC3CC3)CC2)cc1" ? Its ED50 was > 30 mg/kg
